assay: gradient 5% acetonitrile 3 min, to 50% in 2 min, to 85% in 15 min, held 3 min, 100 µL/min; conditions: column: Zorbax Extend-C18 2.1 x 50 mm; eluents: water / acetonitrile, 0.1% formic acid
Measured RP-LC retention time by item
For clarity, give the value followed by its unit.

CN(C)C(=O)C1CCc2sc(C(=O)N3CCOCC3)cc2C1 (stereo not drawn)	614 s
CC(C)c1cccc(NC(=O)C2CCN(C(=O)c3ncn4c3COC(c3ccc(F)cc3)C4)CC2)c1 (stereo not drawn)	931 s
CCn1cc(C(=O)Nc2ccc(C)c(F)c2)c(S(=O)(=O)N2CCSCC2)n1	901 s
O=C(c1nccnc1-c1nc2ccccc2s1)N1CCc2ccccc21	941 s
Cc1ccc(-c2ccc(N3CCCC(C(=O)NCc4ccc5c(c4)OCO5)C3)nn2)cc1 (stereo not drawn)	732 s
CN(C)CC[C@@H](c1ccc(Br)cc1)c1ccccn1	682 s

Sample COC(=O)CNC(=O)NCCc1noc(C2CC2)n1 ; RP-LC retention time observed: 598 s

Sample CC(C)NC(=O)C1CCCN(c2nc3ncn(CC(=O)Nc4cccc(C(C)C)c4)c(=O)c3s2)C1 (stereo not drawn) ; RP-LC retention time observed: 791 s

Sample O=S(=O)(c1ccc2c(c1)-c1oncc1CO2)N1CCCc2ccccc21 ; RP-LC retention time observed: 1020 s

Sample COCC1CN(S(=O)(=O)c2ccc(F)c(C)c2)CC12CCNCC2 (stereo not drawn) ; RP-LC retention time observed: 636 s

Sample CCOC(=O)C1CCN(S(=O)(=O)c2cc(-c3nnc(-c4ccccc4)o3)ccc2OC)CC1 ; RP-LC retention time observed: 976 s

Sample O=C(NC1(c2nc(-c3cccnc3)no2)CCCCC1)c1cc(C2CC2)[nH]n1 ; RP-LC retention time observed: 700 s

Sample N#Cc1cccc(N2C=C(C(=O)N3CCCCC3)S(=O)(=O)c3ccc(F)cc32)c1 ; RP-LC retention time observed: 827 s

---

Measured RP-LC retention time by item
test: gradient 5% acetonitrile 3 min, to 50% in 2 min, to 85% in 15 min, held 3 min, 100 µL/min; conditions: column: Zorbax Extend-C18 2.1 x 50 mm; eluents: water / acetonitrile, 0.1% formic acid
Lab book: enter the figure in s, no units written.

Example compounds with recorded RP-LC retention time:
COc1ccc(-c2nc(-c3ccc4oc(C)nc4c3)no2)cc1F	1080
CCCc1c(OCCCOc2ccc(OCC(=O)O)cc2)ccc(C(C)=O)c1O	1150
COc1ccc(OC)c(S(=O)(=O)N2CCc3c(c(-c4nnc(-c5ccc(F)cc5)o4)nn3C)C2)c1	900
Cc1ccc(C)c(NC(=O)Cn2c(N3CCC(C)CC3)nc(C)cc2=O)c1	772
CCn1cc(C(=O)NCc2ccc3c(c2)OCO3)c2cccnc21	755
COc1cc(Cl)ccc1C(=O)N1CCN(c2cc(-c3ccc(Cl)cc3)[nH]n2)CC1	923
O=C1CCCc2cc(S(=O)(=O)N3CCC(C(=O)NCCc4cccs4)CC3)ccc2N1	717
c1ccc(-c2nc(-c3ccncc3)no2)c(OC2CCN(C3CCCC3)C2)c1 (stereo not drawn)	667

Sample CCN(C(=O)c1ccccc1)c1nc(-c2ccccc2)cs1 ; RP-LC retention time observed: 1230

Sample Cn1c(=O)c(C(=O)NC2CCN(Cc3ccccc3)CC2)nc2cccnc21 ; RP-LC retention time observed: 574

Sample COc1ccccc1N1CCN(c2cc(SCC(=O)Nc3ccccc3Cl)ncn2)CC1 ; RP-LC retention time observed: 1110

Sample Cc1ccc(-c2nc(N)n(C(=O)c3ccc(C(C)(C)C)cc3)n2)cc1 ; RP-LC retention time observed: 1280

Sample Cc1ccccc1Cn1c(CN2CCC(C(=O)NC3CCCCCC3)CC2)cc2ccccc21 ; RP-LC retention time observed: 885

---

Measured RP-LC retention time by item
test: gradient 5% acetonitrile 3 min, to 50% in 2 min, to 85% in 15 min, held 3 min, 100 µL/min; settings: column: Zorbax Extend-C18 2.1 x 50 mm; eluents: water / acetonitrile, 0.1% formic acid
Lab book: enter the figure in s, no units written.

Example compounds with recorded RP-LC retention time:
Cc1ccc(C)c(NC(=O)C2CCN(S(=O)(=O)c3ccc4c(c3)CCCC(=O)N4)CC2)c1	768
CCN1CCN(c2cc(C(=O)O)c3cc(NC(=O)c4ccc(Br)cc4)ccc3n2)CC1	610

Please look at the following compound next.
Sample Cc1ccc(Nc2c(-c3ccccc3O)nc3cc(C)ccn23)cc1 ; RP-LC retention time observed: 701

---

Measured RP-LC retention time by item
test: gradient 5% acetonitrile 3 min, to 50% in 2 min, to 85% in 15 min, held 3 min, 100 µL/min; conditions: column: Zorbax Extend-C18 2.1 x 50 mm; eluents: water / acetonitrile, 0.1% formic acid
Lab book: enter the figure in s, no units written.

Example molecules with recorded RP-LC retention time:
O=C1NC2(CCN(C(=O)NCc3ccc(F)cc3)CC2)Nc2c(Cl)cccc21	770
Cc1nnc(NC(=O)c2ccc3c(c2)OCO3)s1	646
CC(C)N(Cc1ccccc1)C(=O)C1CCCN(c2ncnc3c2nc2n3CCCCC2)C1 (centres undefined)	905
CCc1cc(=O)n(CC(=O)NCc2ccccc2OC)c(N)n1	602
CCN1CCCn2nc(C3CCN(S(=O)(=O)c4ccc(F)cc4)CC3)cc2C1=O	761

Sample CC(C)N1C(=O)c2cccnc2Sc2cc(NC(=O)Cc3ccc(Cl)cc3)ccc21 ; RP-LC retention time observed: 954

Sample O=S(=O)(C1CC1)N1CCCCC1c1nncn1CC1CC1 (centres undefined) ; RP-LC retention time observed: 578

Sample Cc1noc(C)c1-c1ccc(S(=O)(=O)Nc2ccc(C#N)cc2)cc1 ; RP-LC retention time observed: 874

Sample CC(=O)N1CCc2cc(N3CC(C(=O)NC(C)c4ccc(C)cc4C)CC3=O)ccc21 (centres undefined) ; RP-LC retention time observed: 772

---

experiment: gradient 5% acetonitrile 3 min, to 50% in 2 min, to 85% in 15 min, held 3 min, 100 µL/min; conditions: column: Zorbax Extend-C18 2.1 x 50 mm; eluents: water / acetonitrile, 0.1% formic acid
Rule: RP-LC retention time of 800 s or more gives Criterion met; anything lower gives Criterion not met.

# count of solved cases: 5
CCCN1C(=O)Cc2ccccc2C1C(=O)NCCOC (stereo not given)	Criterion not met
C=C(C)COc1ccc2c(C)c(CCC(=O)N3CCN(c4ccccn4)CC3)c(=O)oc2c1C	Criterion not met
COc1ccc(CNC(=O)c2c(C)sc3ccn(Cc4ccc(F)cc4)c(=O)c23)cc1	Criterion met
COc1cc(NC(=O)NCC(c2cccnc2)c2c[nH]c3ccccc23)cc(OC)c1OC (stereo not given)	Criterion not met
Oc1cc2c(c(Cl)c1O)CCNCC2c1ccccc1 (stereo not given)	Criterion not met

Ask: # bool: RP-LC retention time of CCN(CC)c1ccc(C(=O)N2CCC(c3cc(N)on3)CC2)cc1 >= 800 s
Result: Criterion not met

Ask: # bool: RP-LC retention time of CCn1c(=O)c2c(nc(/C=C/c3ccc(OC)c(OC)c3)n2C)n(CC)c1=O >= 800 s
Result: Criterion met

Ask: # bool: RP-LC retention time of Cc1nc2cccnc2n1CC1CCCN(S(=O)(=O)c2ccc3c(c2)CCC3)C1 (stereo not given) >= 800 s
Result: Criterion not met

Ask: # bool: RP-LC retention time of COc1ccc(S(=O)(=O)N2CCCC(C(=O)NCCCO)C2)cc1C (stereo not given) >= 800 s
Result: Criterion not met

Ask: # bool: RP-LC retention time of Cn1cc(C(=O)NCc2ccc(F)c(Cl)c2)c(S(=O)(=O)N2CCCCC2)n1 >= 800 s
Result: Criterion met

Ask: # bool: RP-LC retention time of Cc1cc(-c2nnc(C3CCC3)o2)c(C)n1CC(=O)Nc1ccc(F)c(F)c1 >= 800 s
Result: Criterion met

---

assay: gradient 5% acetonitrile 3 min, to 50% in 2 min, to 85% in 15 min, held 3 min, 100 µL/min; conditions: column: Zorbax Extend-C18 2.1 x 50 mm; eluents: water / acetonitrile, 0.1% formic acid
READOUT_KIND: RP-LC retention time (s)
Lab book: enter the figure in s, no units written.

CCC(=O)N(C)CCc1noc(-c2ccc(C(=O)NCCCOC)cc2)n1	650
Cc1ccc(-c2csc(NC(=O)c3ccc(C)c(C)c3)n2)cc1	1240
CC1(C)C(=O)N(CC(=O)Nc2ccc3c(c2)OCO3)c2ccccc21	823

Please look at the following compound next.
Sample Cc1cccc(-c2nnc(CC(=O)NCC(C)C)o2)c1 ; RP-LC retention time observed: 790

---

assay: gradient 5% acetonitrile 3 min, to 50% in 2 min, to 85% in 15 min, held 3 min, 100 µL/min; details: column: Zorbax Extend-C18 2.1 x 50 mm; eluents: water / acetonitrile, 0.1% formic acid
Exam item: assign Yes to entries whose RP-LC retention time is below 800 s and No to entries at or above 800 s. Note that a value of exactly 800 s receives No.

CC1(C)CC(=O)c2cn(-c3ccccc3)c(=O)c(C(=O)NCc3cccs3)c2C1	No
Cc1sc(NC(=O)Cc2ccccc2)nc1-c1ccc2c(c1)NC(=O)CO2	No
O=C(c1ccncc1)N1CCCN(c2cc(-c3ccc4c(c3)OCO4)[nH]n2)CC1	Yes
CCOc1ccccc1NC(=O)N1CCN(c2ccc(=O)n(-c3ccccc3)n2)CC1	No

Ask: RP-LC retention time strictly < 800 s for this molecule? CCN(CC)CCNc1c(C)cc(CO)c(Cl)c1C
Result: Yes

Ask: RP-LC retention time strictly < 800 s for this molecule? Cc1oc(-c2ccc(NC(=O)c3ccco3)cc2)nc1Cn1cccn1
Result: Yes

Ask: RP-LC retention time strictly < 800 s for this molecule? Cc1cc(-c2ccc(S(=O)(=O)N3CCC(C(=O)NCC4CCCCC4)CC3)o2)n[nH]1
Result: No

Ask: RP-LC retention time strictly < 800 s for this molecule? Cc1oc(C2CCC2)nc1C(=O)NCc1ccc2c(c1)OCO2
Result: No
